- PROCEDURE SUMMARY: qHTS for Inhibitors of human tyrosyl-DNA phosphodiesterase 1 (TDP1): qHTS in cells in presence of CPT; also: nearly all actives have a fitted effect of over 55% in size
- ASSAY CONTEXT: chicken DT40 Tdp1-/-;hTDP1 cells + 20 nM CPT, ATP luminescence, 48 h; series mostly up to 46.2 µM
Screen size: about 420,000 compounds; about 50,000 (12%) were called active. About 26% were inconclusive and are not listed. Calls follow the shape of the dose curve; as a rule, active = well fitted inhibition curve with a large enough effect; inconclusive = small, poorly fitted or top-dose-only effect; inactive = flat fitted curve, though single readings scatter. For the sample, actives were picked, then their nearest neighbours and some compounds at random.
Return exactly one item of 1 for active, 0 for inactive

SCc1nc2ccc(Cl)cc2[nH]1; 1
COc1ccc(N2C(=O)CC(N3CCC(C(N)=O)CC3)C2=O)cc1 (stereo unspecified); 0
Cc1cc2oc(=O)cc(CN(C)Cc3ccccc3)c2cc1Cl; 0
COc1ccc(CCN2C(=O)CC(N3CCC(C(N)=O)CC3)C2=O)cc1OC (stereo unspecified); 1
CC(C)CN1C(=O)CN(S(C)(=O)=O)CC1(C)C(=O)NCc1ccccc1 (stereo unspecified); 0

Task item: Give the logged outcome of this assay for the following molecule: `CCSc1nnc(SCC(=O)NNC(=O)c2ccccc2F)s1`
Reply: 0
